Tested on: LOC_OS07G06570-cb004;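 note: purified Escherichia coli-expressed rice kinase domain construct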
Assay: thermal shift delta Tm vs DMSO control; higher = stronger stabilization (binding)
Details: 12.5 µM; protein concentration 2 µM
For each record, write down the corresponding thermal shift delta Tm.
Provide the reading as a plain figure in °C.

The measured thermal shift delta Tm associated with CC1(C)CNc2cc(NC(=O)c3cccnc3NCc3ccncc3)ccc21 [Motesanib Diphosphate (AMG-706)] reads 0.75

Lab note: Oc1cc(O)cc(/C=C/c2ccc(O)c(O)c2)c1 [Piceatannol] gave thermal shift delta Tm of 0.43

// O=C(NOCC(O)CO)c1cc(Br)c(F)c(F)c1Nc1ccc(I)cc1F (centres undefined) : thermal shift delta Tm value = 1.14

Kindly note the recorded thermal shift delta Tm for CC(C)c1c2cc(-c3ccnc(NC4CCC(NC5CCOCC5)CC4)n3)ccc2nn1C (centres undefined) , which is 1.62

Provenance of the data: the supplement of paper PMC9694430
